Source of measurements: ChEMBL document CHEMBL4706764

- testedOn: Protein cereblon/Tyrosine-protein kinase JAK2 (Homo sapiens, UniProt O60674+Q96SW2)
- Sequence (O60674 whole entry): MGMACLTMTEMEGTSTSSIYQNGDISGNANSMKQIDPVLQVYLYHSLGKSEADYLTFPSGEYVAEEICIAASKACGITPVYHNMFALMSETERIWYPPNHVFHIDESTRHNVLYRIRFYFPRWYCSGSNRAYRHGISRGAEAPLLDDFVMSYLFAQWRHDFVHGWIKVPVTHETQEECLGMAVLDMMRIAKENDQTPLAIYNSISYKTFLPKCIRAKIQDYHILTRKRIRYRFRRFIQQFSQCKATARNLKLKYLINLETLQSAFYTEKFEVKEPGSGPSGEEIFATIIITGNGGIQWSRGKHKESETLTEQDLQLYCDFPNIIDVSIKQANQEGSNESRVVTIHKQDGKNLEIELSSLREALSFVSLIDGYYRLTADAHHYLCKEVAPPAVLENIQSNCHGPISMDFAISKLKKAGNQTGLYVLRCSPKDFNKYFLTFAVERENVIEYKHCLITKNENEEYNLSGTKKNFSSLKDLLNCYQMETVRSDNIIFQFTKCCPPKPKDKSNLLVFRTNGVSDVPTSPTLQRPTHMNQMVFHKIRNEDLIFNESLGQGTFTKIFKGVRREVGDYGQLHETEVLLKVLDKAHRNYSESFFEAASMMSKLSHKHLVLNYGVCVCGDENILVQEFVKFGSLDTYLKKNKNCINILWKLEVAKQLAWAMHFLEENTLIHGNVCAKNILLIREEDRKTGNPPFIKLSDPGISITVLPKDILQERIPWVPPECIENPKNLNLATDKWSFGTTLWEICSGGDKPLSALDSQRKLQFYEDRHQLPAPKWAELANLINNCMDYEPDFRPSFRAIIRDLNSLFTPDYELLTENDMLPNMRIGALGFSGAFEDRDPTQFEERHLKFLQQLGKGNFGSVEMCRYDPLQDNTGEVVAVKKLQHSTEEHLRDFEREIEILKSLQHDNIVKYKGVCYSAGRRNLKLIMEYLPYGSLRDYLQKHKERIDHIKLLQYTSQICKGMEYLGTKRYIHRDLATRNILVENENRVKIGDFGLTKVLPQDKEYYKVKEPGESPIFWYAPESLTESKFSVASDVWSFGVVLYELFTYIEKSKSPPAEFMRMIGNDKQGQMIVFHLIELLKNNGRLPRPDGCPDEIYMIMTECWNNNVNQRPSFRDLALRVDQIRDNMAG
- Sequence (Q96SW2 whole entry): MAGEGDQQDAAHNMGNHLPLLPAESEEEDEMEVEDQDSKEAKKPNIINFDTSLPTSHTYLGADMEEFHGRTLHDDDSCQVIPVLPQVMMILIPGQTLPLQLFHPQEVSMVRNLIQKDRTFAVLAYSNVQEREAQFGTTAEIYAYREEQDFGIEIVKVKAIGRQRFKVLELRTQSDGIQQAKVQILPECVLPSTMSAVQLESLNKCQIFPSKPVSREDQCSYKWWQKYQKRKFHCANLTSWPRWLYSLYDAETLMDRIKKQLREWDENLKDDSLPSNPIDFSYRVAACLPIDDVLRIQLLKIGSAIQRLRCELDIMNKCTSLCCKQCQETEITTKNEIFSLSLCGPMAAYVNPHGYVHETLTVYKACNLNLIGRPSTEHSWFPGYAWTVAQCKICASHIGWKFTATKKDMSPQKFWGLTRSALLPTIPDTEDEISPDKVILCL
- testSummary: PROTAC activity at CRBN/JAK2 in human MHHCALL4 cells assessed as protein degradation by immunoblot analysis
reportedProperty: EC50 (nM)

Study these solved cases before continuing.
>  <compound>
CCCn1cc(-c2nc(Nc3ccc(C(=O)NCCCNc4cccc5c4C(=O)N(C4CCC(=O)NC4=O)C5=O)cc3)nc3[nH]ccc23)cn1 (stereo not drawn)

>  <testedOn>
Protein cereblon/Tyrosine-protein kinase JAK2 (Homo sapiens, UniProt O60674+Q96SW2)

>  <EC50 (nM)>
0.5

$$$$
>  <compound>
N#CC[C@H](C1CCCC1)n1cc(-c2nc(Nc3ccc(C(=O)NCCCCNc4cccc5c4C(=O)N(C4CCC(=O)NC4=O)C5=O)cc3)nc3[nH]ccc23)cn1 (stereo partly drawn)

>  <testedOn>
Protein cereblon/Tyrosine-protein kinase JAK2 (Homo sapiens, UniProt O60674+Q96SW2)

>  <EC50 (nM)>
3.9

$$$$
>  <compound>
CCCn1cc(-c2nc(Nc3ccc(C(=O)NCCCCNc4cccc5c4C(=O)N(C4CCC(=O)NC4=O)C5=O)cc3)nc3[nH]ccc23)cn1 (stereo not drawn)

>  <testedOn>
Protein cereblon/Tyrosine-protein kinase JAK2 (Homo sapiens, UniProt O60674+Q96SW2)

>  <EC50 (nM)>
0.2

$$$$

a = CCCn1cc(-c2nc(Nc3ccc(C(=O)NCCOCCOCCOCCOCCOCCOCCNc4cccc5c4C(=O)N(C4CCC(=O)NC4=O)C5=O)cc3)nc3[nH]ccc23)cn1 (stereo not drawn)
b = CCCn1cc(-c2nc(Nc3ccc(C(=O)NCCCCCNc4cccc5c4C(=O)N(C4CCC(=O)NC4=O)C5=O)cc3)nc3[nH]ccc23)cn1 (stereo not drawn)
## Task Between a and b , which one shows the smaller EC50 number? Response format: the label of the selected entry.
## Result b
(b: 0.9 nM, a: 720 nM)

1 = CCCn1cc(-c2nc(Nc3ccc(C(=O)NCCCCCNc4cccc5c4CN(C4CCC(=O)NC4=O)C5=O)cc3)nc3[nH]ccc23)cn1 (stereo not drawn)
2 = CCCn1cc(-c2nc(Nc3ccc(C(=O)NCCOCCOCCOCCOCCOCCNc4cccc5c4C(=O)N(C4CCC(=O)NC4=O)C5=O)cc3)nc3[nH]ccc23)cn1 (stereo not drawn)
## Task // compare measured EC50, left 1 , right 2 , return larger Response format: the label of the selected entry.
## Result 2
